TARGET_UNDER_TEST: Sodium- and chloride-dependent GABA transporter 2 (Mus musculus)
Sequence (P31649 whole entry): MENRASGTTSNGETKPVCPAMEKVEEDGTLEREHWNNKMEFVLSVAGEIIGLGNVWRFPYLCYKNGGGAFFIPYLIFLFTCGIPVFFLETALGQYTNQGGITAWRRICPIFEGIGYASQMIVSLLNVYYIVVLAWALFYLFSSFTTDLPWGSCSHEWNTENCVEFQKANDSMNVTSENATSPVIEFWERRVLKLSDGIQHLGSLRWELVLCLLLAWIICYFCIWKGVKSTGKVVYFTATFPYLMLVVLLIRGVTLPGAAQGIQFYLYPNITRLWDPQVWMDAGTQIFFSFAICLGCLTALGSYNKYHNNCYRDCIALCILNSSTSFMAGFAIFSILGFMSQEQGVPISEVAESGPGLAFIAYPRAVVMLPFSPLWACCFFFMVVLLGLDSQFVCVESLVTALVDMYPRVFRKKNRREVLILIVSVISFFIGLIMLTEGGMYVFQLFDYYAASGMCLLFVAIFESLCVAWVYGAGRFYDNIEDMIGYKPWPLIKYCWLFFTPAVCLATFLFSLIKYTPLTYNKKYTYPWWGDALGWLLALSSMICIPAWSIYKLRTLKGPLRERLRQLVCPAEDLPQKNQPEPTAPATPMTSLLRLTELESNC
PROTOCOL_DESCRIPTION: Inhibition of mouse GAT2 expressed in HEK293 cell line assessed as inhibition of [3H]GABA uptake measured after 35 mins by liquid scintillation method
MEASURED_QUANTITY: pIC50
Remember, pIC50 is on a log scale: it is -log10 of the molar concentration.

See these solved cases before continuing.
Task item: Quick check: pIC50 on Sodium- and chloride-dependent GABA transporter 2 (Mus musculus), item Cc1ccsc1C(=CCCN(C)C(CC(C)O)C(=O)NCc1ccc(Cl)cc1)c1sccc1C (stereo unspecified) ?
Reply: 4.98

Task item: Quick check: pIC50 on Sodium- and chloride-dependent GABA transporter 2 (Mus musculus), item NCC(O)C(=O)O (stereo unspecified) ?
Reply: 3.64

Task item: Quick check: pIC50 on Sodium- and chloride-dependent GABA transporter 2 (Mus musculus), item Cc1ccsc1C(=CCCN(C)C(CO)C(=O)NCc1ccc(F)cc1)c1sccc1C (stereo unspecified) ?
Reply: 4.65

Task item: Quick check: pIC50 on Sodium- and chloride-dependent GABA transporter 2 (Mus musculus), item Cc1ccsc1C(=CCCN(C)C(CC(C)O)C(=O)NCc1ccc(F)cc1)c1sccc1C (stereo unspecified) ?
Reply: 4.58

Task item: Quick check: pIC50 on Sodium- and chloride-dependent GABA transporter 2 (Mus musculus), item Cc1ccsc1C(=CCCN(C)C(CC(C)O)C(=O)NCc1ccccc1Cl)c1sccc1C (stereo unspecified) ?
Reply: 4.98

Task item: Quick check: pIC50 on Sodium- and chloride-dependent GABA transporter 2 (Mus musculus), item Cc1ccc(CNC(=O)C(CC(C)O)N(C)CCC=C(c2sccc2C)c2sccc2C)cc1 (stereo unspecified) ?
Reply: 4.77

Next, consider the following molecule.
Task item: Quick check: pIC50 on Sodium- and chloride-dependent GABA transporter 2 (Mus musculus), item Cc1ccc(CNC(=O)C(CCO)N(C)CCC=C(c2sccc2C)c2sccc2C)cc1 (stereo unspecified) ?
Reply: 5.01
